These measurements were taken from patent US20250230147A1.

pIC50 reference
Target: UniProt:P22681
Experiment: C-Cbl LCK Ub TR-FRET assay (c-cbl Lck HTRF)
Assay type: biochemical
pIC50: −log10 of the molar value.
endpoint name: pIC50

>  <compound>
Cc1ncn(CC2(c3cccc(N4Cc5c(cc(CN6CCN(C)C[C@@H]6C(C)C)cc5C(F)(F)F)C4=O)c3)COC2)n1 [Compound 255]

>  <cmp>
≤

>  <reading>
4.70

$$$$
>  <compound>
CC(C)[C@H]1CN(C2CC2)CCN1Cc1cc2c(c(C(F)(F)F)c1)CN(c1cccc(C3([C@@H](F)c4nncn4C)COC3)c1)C2=O [Compound 405]

>  <cmp>
=

>  <reading>
7.80

$$$$
>  <compound>
Cn1cnnc1CC1(c2cc(NCCC#N)nc(N3Cc4c(cc(CNC5(C)CCC5)cc4C(F)(F)F)C3=O)c2)CCC1 [Compound 308]

>  <cmp>
=

>  <reading>
8.12

$$$$
>  <compound>
CN1CCN(Cc2cc3c(c(C(F)(F)F)c2)CN(c2cccc(C4(Cc5nncn5C)CC(F)(F)C4)c2)C3=O)[C@@H](C2CC2)C1 [Compound 402]

>  <cmp>
=

>  <reading>
7.34

$$$$
>  <compound>
Cn1cnnc1[C@@H](F)C1(c2cccc(N3Cc4c(cc(CN5CC(C)(CO)C5)cc4C(F)(F)F)C3=O)c2)COC1 [Compound 75]

>  <cmp>
=

>  <reading>
6.24

$$$$
>  <compound>
Cn1cnnc1C(F)(F)C1(c2cccc(N3Cc4c(cc(CN5CC(C)(O)C5)cc4C(F)(F)F)C3=O)c2)CC(F)(F)C1 [Compound 383]

>  <cmp>
=

>  <reading>
6.42

$$$$
>  <compound>
CC(C)[C@H]1CN(C2COC2)CCN1Cc1cc2c(c(C(F)(F)F)c1)CN(c1cccc(C3([C@H](F)c4nncn4C)COC3)c1)C2=O [Compound 199]

>  <cmp>
=

>  <reading>
7.25

$$$$
>  <compound>
Cn1cnnc1[C@@H](F)C1(c2cccc(N3Cc4c(cc(CC5CNC5)cc4C(F)(F)F)C3=O)c2)COC1 [Compound 58]

>  <cmp>
=

>  <reading>
6.44

$$$$
>  <compound>
Cn1cnnc1CC1(c2cc(NCCN3CCOCC3)nc(N3Cc4c(cc(CNC5(C)CCC5)cc4C(F)(F)F)C3=O)c2)CCC1 [Compound 340]

>  <cmp>
=

>  <reading>
6.49

$$$$
>  <compound>
C[C@H](c1cc2c(c(C(F)(F)F)c1)CN(c1cccc(C3([C@H](F)c4nncn4C)COC3)c1)C2=O)N1CC(C)(F)C1 [Compound 111]

>  <cmp>
=

>  <reading>
6.47

$$$$
>  <compound>
CN(CCC(C)(C)O)Cc1cc2c(c(C(F)(F)F)c1)CN(c1cccc(C3([C@H](F)c4nncn4C)COC3)c1)C2=O [Compound 158]

>  <cmp>
=

>  <reading>
6.55

$$$$

* * *

Biological target: c-Cbl (Homo sapiens (Human))
Sequence (P22681 47-435): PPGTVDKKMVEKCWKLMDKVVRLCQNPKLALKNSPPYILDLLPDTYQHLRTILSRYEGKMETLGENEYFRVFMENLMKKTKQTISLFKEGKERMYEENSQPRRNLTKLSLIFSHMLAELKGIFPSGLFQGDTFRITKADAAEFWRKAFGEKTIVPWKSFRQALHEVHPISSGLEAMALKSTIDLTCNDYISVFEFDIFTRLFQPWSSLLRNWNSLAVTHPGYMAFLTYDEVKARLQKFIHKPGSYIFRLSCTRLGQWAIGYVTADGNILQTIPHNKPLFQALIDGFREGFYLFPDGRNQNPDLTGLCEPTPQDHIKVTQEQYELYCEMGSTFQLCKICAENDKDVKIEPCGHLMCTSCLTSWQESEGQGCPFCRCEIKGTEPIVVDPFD
Assay: C-Cbl LCK Ub TR-FRET assay (c-cbl Lck HTRF)
Assay type: biochemical
pIC50: −log10 of the molar value.
Kind request: treat 7 as inclusive, so pIC50 at 7 or higher is met, anything lower is not met.

>  <structure string>
Cn1cnnc1C(F)(F)C1(c2cccc(N3Cc4c(cc(CN)cc4C(F)(F)F)C3=O)c2)CC(F)(F)C1

>  <category label>
not met

$$$$
>  <structure string>
Cn1cnnc1CC1(c2cccc(N3Cc4c(cc(CNCC5COC5)cc4C(F)(F)F)C3=O)c2)CC(F)(F)C1

>  <category label>
met

$$$$
>  <structure string>
CCNc1cc(C2(Cc3nncn3C)COC2)cc(N2Cc3c(cc(CNC4(C)CCC4)cc3C(F)(F)F)C2=O)n1

>  <category label>
met

$$$$
>  <structure string>
Cn1cnnc1CC1(c2cc(CCc3ccccc3)nc(N3Cc4c(cc(CNC5(C)CCC5)cc4C(F)(F)F)C3=O)c2)CCC1

>  <category label>
met

$$$$
>  <structure string>
Cc1cnnn1CC1(c2cccc(N3Cc4c(cc(CNC5(C)CCC5)cc4C(F)F)C3=O)c2)COC1

>  <category label>
met

$$$$
>  <structure string>
C[C@@H]1CN(Cc2cc3c(c(C(F)(F)F)c2)CN(c2cccc(C4([C@@H](F)c5nncn5C)COC4)c2)C3=O)CCCO1

>  <category label>
met

$$$$
